# credit: patent US20220017572A1

# target-of-assay: DENV2 protease (Dengue virus type 2, UniProt P14340)
# Construct: The active site of the dengue protease is in the N-terminal part of NS3
# Sequence (P14340 1476-1653): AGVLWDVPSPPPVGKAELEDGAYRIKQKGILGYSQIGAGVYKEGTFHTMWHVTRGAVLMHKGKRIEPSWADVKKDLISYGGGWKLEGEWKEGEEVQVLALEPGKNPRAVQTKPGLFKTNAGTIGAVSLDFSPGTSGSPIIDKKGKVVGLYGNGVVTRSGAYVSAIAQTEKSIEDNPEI
# Sequence (P14340 1398-1437): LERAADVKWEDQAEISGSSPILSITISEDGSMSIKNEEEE
# protocol-description: DENV2 protease biochemical assay
# cond: 50 μM inhibitor
Residues, ends and D or L forms follow the SMILES beside them.
readout-name: inhibition at 50 µM (%)

compound	target-of-assay	readout-name	readout-value
CCCCCCCCCCCCNC(=O)[C@H](CCCCN)NC(=O)[C@H](CCCCN)NC(=O)[C@H](CCCCN)NC(=O)[C@H](CC(C)C)NC(=O)CCCCCCCCCCC [C12-LKKK-C12] (HELM PEPTIDE1{[CCCCCCCCCCCC(=O)[*:2]].L.K.K.K.[CCCCCCCCCCCCN[*:1]]}$$$$V2.0)	DENV2 protease (Dengue virus type 2, UniProt P14340)	inhibition at 50 µM	102
CCCCCCCCCCCCCCCCNC(=O)[C@H](CCCCN)NC(=O)[C@H](C)NC(=O)[C@H](C)NC(=O)[C@H](CCCCN)NC(=O)CCCCCCCCCCCCCCC [C16-KAAK-C16] (HELM PEPTIDE1{[CCCCCCCCCCCCCCCC(=O)[*:2]].K.A.A.K.[CCCCCCCCCCCCCCCCN[*:1]]}$$$$V2.0)	DENV2 protease (Dengue virus type 2, UniProt P14340)	inhibition at 50 µM	97.7
CCCCCCCCCCCCCCCCNC(=O)[C@H](CCCCN)NC(=O)[C@H](C)NC(=O)[C@H](CCCCN)NC(=O)CCCCCCCCCCCCCCC [C16-KAK-C16]	DENV2 protease (Dengue virus type 2, UniProt P14340)	inhibition at 50 µM	106
CCCCCCCCCCCCCCCCNC(=O)[C@H](CCCCN)NC(=O)CNC(=O)CNC(=O)[C@H](CCCCN)NC(=O)CCCCCCCCCCCCCCC [C16-KGGK-C16, C15H31CO-KGGK-NH—C16H33] (HELM PEPTIDE1{[CCCCCCCCCCCCCCCC(=O)[*:2]].K.G.G.K.[CCCCCCCCCCCCCCCCN[*:1]]}$$$$V2.0)	DENV2 protease (Dengue virus type 2, UniProt P14340)	inhibition at 50 µM	104
CCCCCCCCCCCCNC(=O)[C@H](CCCCN)NC(=O)[C@H](CCCCN)NC(=O)[C@H](CCCCN)NC(=O)[C@H](C)NC(=O)CCCCCCCCCCC [C12-AKKK-C12] (HELM PEPTIDE1{[CCCCCCCCCCCC(=O)[*:2]].A.K.K.K.[CCCCCCCCCCCCN[*:1]]}$$$$V2.0)	DENV2 protease (Dengue virus type 2, UniProt P14340)	inhibition at 50 µM	98.5
CCCCCCCCCCCCCCCCNC(=O)[C@H](CCCCN)NC(=O)[C@H](CCC(N)=O)NC(=O)[C@H](CCCNC(=N)N)NC(=O)[C@H](C)NC(=O)CCCCCCCCCCCCCCC [C16-ARQK-C16] (HELM PEPTIDE1{[CCCCCCCCCCCCCCCC(=O)[*:2]].A.R.Q.K.[CCCCCCCCCCCCCCCCN[*:1]]}$$$$V2.0)	DENV2 protease (Dengue virus type 2, UniProt P14340)	inhibition at 50 µM	95.7
CCCCCCCCCCCCCCCCNC(=O)[C@H](CO)NC(=O)[C@H](CCCCN)NC(=O)[C@H](C)NC(=O)[C@H](CCCCN)NC(=O)[C@H](CC(C)C)NC(=O)CCCCCCCCCCCCCCC [C16-LKAKS-C16] (HELM PEPTIDE1{[CCCCCCCCCCCCCCCC(=O)[*:2]].L.K.A.K.S.[CCCCCCCCCCCCCCCCN[*:1]]}$$$$V2.0)	DENV2 protease (Dengue virus type 2, UniProt P14340)	inhibition at 50 µM	108
CCCCCCCCCCCCCCCCNC(=O)[C@H](CCCCN)NC(=O)[C@H](CCC(N)=O)NC(=O)[C@H](C)NC(=O)[C@H](CCCNC(=N)N)NC(=O)CCCCCCCCCCCCCCC [C16-RAQK-C16] (HELM PEPTIDE1{[CCCCCCCCCCCCCCCC(=O)[*:2]].R.A.Q.K.[CCCCCCCCCCCCCCCCN[*:1]]}$$$$V2.0)	DENV2 protease (Dengue virus type 2, UniProt P14340)	inhibition at 50 µM	102
CCCCCCCCCCCCCCCCNC(=O)[C@H](CCCCN)NC(=O)CNC(=O)[C@H](CCCCN)NC(=O)CCCCCCCCCCCCCCC [C16-KGK-C16, C15H31CO-KGK-NH—C16H33]	DENV2 protease (Dengue virus type 2, UniProt P14340)	inhibition at 50 µM	103
CCCCCCCCCCCCCCCCNC(=O)[C@H](CCCCN)NC(=O)[C@H](CCCCN)NC(=O)[C@H](CCCCN)NC(=O)[C@H](Cc1ccccc1)NC(=O)CCCCCCCCCCCCCCC [C16-FKKK-C16] (HELM PEPTIDE1{[CCCCCCCCCCCCCCCC(=O)[*:2]].F.K.K.K.[CCCCCCCCCCCCCCCCN[*:1]]}$$$$V2.0)	DENV2 protease (Dengue virus type 2, UniProt P14340)	inhibition at 50 µM	95.8
CCCCCCCCCCCCCCCCNC(=O)[C@@H](CO)NC(=O)[C@@H](CCCCN)NC(=O)[C@@H](C)NC(=O)[C@@H](CCCCN)NC(=O)[C@@H](CC(C)C)NC(=O)CCCCCCCCCCCCCCC [C16-D-LKAKS-C16] (HELM PEPTIDE1{[CCCCCCCCCCCCCCCC(=O)[*:2]].[dL].[dK].[dA].[dK].[dS].[CCCCCCCCCCCCCCCCN[*:1]]}$$$$V2.0)	DENV2 protease (Dengue virus type 2, UniProt P14340)	inhibition at 50 µM	97.4
